# targetDesc: Cav3.2 (T-type channel alpha-1H) (Homo sapiens)
# methodNotes: T-type calcium channel voltage-clamp assay, Cav3.2
# conditions: read-out: Cav 3.2 IC50
reportedProperty: IC50 (nM)
Answer in nM, number only, no unit symbol.

{"molecule": "CC(C)(C)C(=O)Nc1ccncc1C(=O)N1CCN(c2cc(C(C)(C)C)cc(C(C)(C)C)c2)CC1 [Compound 7]", "IC50 / nM": 660}

As a next step, examine the molecule that follows.
Which IC50 value is on record for CC(C)(C)c1cc(N2CCN(C(=O)COc3ccc(F)cc3)CC2)cc(C(C)(C)C)c1 [Compound 13] ?
680

---

# targetDesc: Human Cav2.2 channels (Homo sapiens)
# methodNotes: Block of Cav2.2 (N-type) channels expressed in HEK293 cells
# conditions: read-out: Cav 2.2 IC50
# Description: Human Cav2.2 channels were stably expressed in HEK293 cells along with alpha2-delta and beta subunits of voltage-gated calcium channels. […] Calcium influx through Cav2.2 channels is determined using a calcium sensitive fluorescent dye in combination with a fluorescent plate reader. Fluorescent changes were measured with either a VIPR (Aurora Instruments) or FLIPR (Molecular Devices) plate reader. Protocol • 1. […] Read cell plate on VIPR instrument, Excitation=480 nm, Emission=535 nm • 9. […]
Grouping rule (IC50): c1: < 0.8 µM; c2: ≥ 0.8 µM and < 1 µM; c3: ≥ 1 µM

Reference set (6 entries):
{"inputSmiles": "Cc1nc(C(F)(F)F)c(C(=O)N2CCN(c3cc(C(C)(C)C)cc(C(C)(C)C)c3)CC2)s1", "targetDesc": "Human Cav2.2 channels (Homo sapiens)", "discreteLabel": "c2"}
{"inputSmiles": "Cc1ccc(C(=O)N2CCN(c3cc(C(C)(C)C)cc(C(C)(C)C)c3)CC2)s1", "targetDesc": "Human Cav2.2 channels (Homo sapiens)", "discreteLabel": "c3"}
{"inputSmiles": "Cc1nc(C(F)(F)F)ccc1C(=O)N1CCN(c2cc(C(C)(C)C)cc(C(C)(C)C)c2)CC1", "targetDesc": "Human Cav2.2 channels (Homo sapiens)", "discreteLabel": "c3"}
{"inputSmiles": "CC(C)c1cc(C(=O)N2CCN(c3cc(C(C)(C)C)cc(C(C)(C)C)c3)CC2)cs1", "targetDesc": "Human Cav2.2 channels (Homo sapiens)", "discreteLabel": "c3"}
{"inputSmiles": "CC(C)(C)c1cc(N2CCN(C(=O)c3ccc(F)c(C(F)(F)F)c3)CC2)cc(C(C)(C)C)c1", "targetDesc": "Human Cav2.2 channels (Homo sapiens)", "discreteLabel": "c3"}
{"inputSmiles": "CCOc1ncccc1C(=O)N1CCN(c2cc(C(C)(C)C)cc(C(C)(C)C)c2)CC1", "targetDesc": "Human Cav2.2 channels (Homo sapiens)", "discreteLabel": "c2"}

Input Cc1nc(C(=O)N2CCN(c3cc(C(C)(C)C)cc(C(C)(C)C)c3)CC2)c(C(F)(F)F)o1 ; output its category
c1

Subsequent entry: Cc1ccsc1C(=O)N1CCN(c2cc(C(C)(C)C)cc(C(C)(C)C)c2)CC1
c3

Subsequent entry: CC(C)(C)c1cc(N2CCN(C(=O)COc3ccc(F)cc3)CC2)cc(C(C)(C)C)c1
c1

Subsequent entry: Cc1cccc(C(=O)N2CCN(c3cc(C(C)(C)C)cc(C(C)(C)C)c3)CC2)n1
c3

---

# targetDesc: Human Cav2.2 channels (Homo sapiens, UniProt Q00975)
# Construct: expressed in transfected cells
# methodNotes: Block of Cav2.2 (N-type) channels expressed in HEK293 cells
# Type: cell-based
# conditions: HEK293; read-out: Cav 2.2 % Inh @ 10 μM
inhibition at 10 µM: recorded values
Answer in %, number only, no unit symbol.

These recorded examples may help you get a feel for the data.
{"inputSmiles": "CC(C)(C)c1cc(N2CCN(C(=O)c3ccc(C(C)(C)C)s3)CC2)cc(C(C)(C)C)c1", "reportedMeasurement": 52}
{"inputSmiles": "CCOc1ccc(C(=O)N2CCN(c3cc(C(C)(C)C)cc(C(C)(C)C)c3)CC2)o1", "reportedMeasurement": 98}
{"inputSmiles": "CC(C)(C)C(=O)Nc1cc(C(=O)N2CCN(c3cc(C(C)(C)C)cc(C(C)(C)C)c3)CC2)ccn1", "reportedMeasurement": 99}
{"inputSmiles": "CC(C)(C)c1cc(N2CCN(C(=O)c3ccc(F)c(C(F)(F)F)c3)CC2)cc(C(C)(C)C)c1", "reportedMeasurement": 96}

Which inhibition at 10 µM value is on record for CC(C)(C)c1cc(N2CCN(C(=O)c3cc4cccnc4nc3C(F)(F)F)CC2)cc(C(C)(C)C)c1 ?
49

Subsequent entry: CC(C)c1ccc(C(=O)N2CCN(c3cc(C(C)(C)C)cc(C(C)(C)C)c3)CC2)cc1
80

Subsequent entry: CCc1cc(C(=O)N2CCN(c3cc(C(C)(C)C)cc(C(C)(C)C)c3)CC2)sc1C
75

Subsequent entry: CC(C)(C)c1cc(N2CCN(C(=O)c3cc4cc(C(F)(F)F)ccc4s3)CC2)cc(C(C)(C)C)c1
15

Subsequent entry: Cc1cc(C(=O)N2CCN(c3cc(C(C)(C)C)cc(C(C)(C)C)c3)CC2)n(C(C)(C)C)n1
96

Subsequent entry: Cc1nc(C)c(C(=O)N2CCN(c3cc(C(C)(C)C)cc(C(C)(C)C)c3)CC2)s1
98

---

# targetDesc: Cav3.2 (T-type channel alpha-1H) (Homo sapiens, UniProt O95180)
# Sequence (O95180 whole entry): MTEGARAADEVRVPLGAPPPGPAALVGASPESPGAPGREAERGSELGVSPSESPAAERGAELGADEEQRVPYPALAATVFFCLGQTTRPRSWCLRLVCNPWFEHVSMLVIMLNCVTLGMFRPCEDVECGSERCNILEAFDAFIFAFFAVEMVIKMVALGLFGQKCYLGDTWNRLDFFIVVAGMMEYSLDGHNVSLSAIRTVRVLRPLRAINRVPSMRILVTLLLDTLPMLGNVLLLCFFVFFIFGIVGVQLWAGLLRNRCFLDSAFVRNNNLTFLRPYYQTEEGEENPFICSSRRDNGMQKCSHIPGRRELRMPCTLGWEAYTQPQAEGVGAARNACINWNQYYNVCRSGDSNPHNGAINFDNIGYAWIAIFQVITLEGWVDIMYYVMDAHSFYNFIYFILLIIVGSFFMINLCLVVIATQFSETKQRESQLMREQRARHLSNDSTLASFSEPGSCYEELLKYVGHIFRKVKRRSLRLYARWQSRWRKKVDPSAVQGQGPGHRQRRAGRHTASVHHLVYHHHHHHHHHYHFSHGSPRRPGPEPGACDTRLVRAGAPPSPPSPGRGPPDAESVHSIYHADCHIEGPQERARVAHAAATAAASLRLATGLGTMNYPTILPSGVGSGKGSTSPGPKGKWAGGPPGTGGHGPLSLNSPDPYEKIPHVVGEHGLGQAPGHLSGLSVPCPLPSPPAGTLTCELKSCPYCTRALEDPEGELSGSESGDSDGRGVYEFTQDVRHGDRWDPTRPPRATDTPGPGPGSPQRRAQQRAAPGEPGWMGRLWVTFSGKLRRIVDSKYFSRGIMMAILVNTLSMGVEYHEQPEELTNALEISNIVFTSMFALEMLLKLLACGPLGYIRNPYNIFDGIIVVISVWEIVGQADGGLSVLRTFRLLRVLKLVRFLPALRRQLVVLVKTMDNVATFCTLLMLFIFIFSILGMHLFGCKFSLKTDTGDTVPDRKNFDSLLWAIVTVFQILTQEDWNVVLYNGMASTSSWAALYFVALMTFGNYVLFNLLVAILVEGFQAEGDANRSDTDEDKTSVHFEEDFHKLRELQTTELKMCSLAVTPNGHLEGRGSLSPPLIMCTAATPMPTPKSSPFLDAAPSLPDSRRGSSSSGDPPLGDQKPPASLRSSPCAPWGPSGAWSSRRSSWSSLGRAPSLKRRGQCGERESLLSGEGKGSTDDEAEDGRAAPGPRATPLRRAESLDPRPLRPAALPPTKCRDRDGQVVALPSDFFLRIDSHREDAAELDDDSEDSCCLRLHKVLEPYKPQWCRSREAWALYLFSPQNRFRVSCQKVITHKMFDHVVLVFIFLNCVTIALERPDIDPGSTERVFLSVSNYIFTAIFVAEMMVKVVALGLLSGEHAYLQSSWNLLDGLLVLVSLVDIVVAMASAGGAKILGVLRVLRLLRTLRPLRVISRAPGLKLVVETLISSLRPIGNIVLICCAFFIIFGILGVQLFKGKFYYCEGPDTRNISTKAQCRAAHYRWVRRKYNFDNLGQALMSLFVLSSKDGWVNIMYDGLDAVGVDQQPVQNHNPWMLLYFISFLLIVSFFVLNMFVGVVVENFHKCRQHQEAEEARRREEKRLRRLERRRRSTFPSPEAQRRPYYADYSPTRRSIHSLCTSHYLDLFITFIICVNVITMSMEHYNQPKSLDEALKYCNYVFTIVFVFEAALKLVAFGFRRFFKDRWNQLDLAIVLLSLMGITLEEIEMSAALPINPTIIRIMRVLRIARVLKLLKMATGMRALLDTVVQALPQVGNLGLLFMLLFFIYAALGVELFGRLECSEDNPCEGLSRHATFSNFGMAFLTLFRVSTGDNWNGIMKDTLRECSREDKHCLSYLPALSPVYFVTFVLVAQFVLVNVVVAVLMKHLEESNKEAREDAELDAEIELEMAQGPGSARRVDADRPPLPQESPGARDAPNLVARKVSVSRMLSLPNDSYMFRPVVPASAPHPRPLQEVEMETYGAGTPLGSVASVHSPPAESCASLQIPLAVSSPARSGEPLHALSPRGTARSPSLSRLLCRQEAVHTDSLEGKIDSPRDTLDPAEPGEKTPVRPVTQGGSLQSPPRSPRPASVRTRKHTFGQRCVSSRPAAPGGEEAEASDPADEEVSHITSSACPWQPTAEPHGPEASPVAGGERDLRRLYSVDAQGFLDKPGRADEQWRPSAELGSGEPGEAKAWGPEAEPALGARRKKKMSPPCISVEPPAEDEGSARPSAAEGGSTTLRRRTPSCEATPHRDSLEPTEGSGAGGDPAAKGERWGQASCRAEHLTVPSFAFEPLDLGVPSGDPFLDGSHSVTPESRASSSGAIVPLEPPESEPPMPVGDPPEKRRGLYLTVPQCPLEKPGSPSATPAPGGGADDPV
# methodNotes: T-type calcium channel voltage-clamp assay, Cav3.2
# conditions: read-out: Cav 3.2 IC50
IC50: recorded values
In your response, put the unit directly after the numeric value.

Which IC50 value is on record for CC(C)(C)C(=O)Nc1ncccc1C(=O)N1CCN(c2cc(C(C)(C)C)cc(C(C)(C)C)c2)CC1 [Compound 8] ?
710 nM

Subsequent entry: Cc1ccc(C(=O)N2CCN(c3cc(C(C)(C)C)cc(C(C)(C)C)c3)CC2)s1 [Compound 28]
960 nM

Subsequent entry: CC(C)(C)c1cc(N2CCN(C(=O)c3ccc(F)c(C(F)(F)F)c3)CC2)cc(C(C)(C)C)c1 [Compound 16]
690 nM

Subsequent entry: CCCSc1ncccc1C(=O)N1CCN(c2cc(C(C)(C)C)cc(C(C)(C)C)c2)CC1 [Compound 31]
1590 nM

Subsequent entry: Cc1cccc(C(=O)N2CCN(c3cc(C(C)(C)C)cc(C(C)(C)C)c3)CC2)n1 [Compound 49]
1880 nM

Subsequent entry: CC(C)(C)c1cc(N2CCN(C(=O)c3ccc(F)cc3)CC2)cc(C(C)(C)C)c1 [Compound 4]
790 nM

Subsequent entry: Cc1nc(C(=O)N2CCN(c3cc(C(C)(C)C)cc(C(C)(C)C)c3)CC2)c(C(F)(F)F)o1 [Compound 37]
2290 nM

Subsequent entry: CCn1nc(C)cc1C(=O)N1CCN(c2cc(C(C)(C)C)cc(C(C)(C)C)c2)CC1 [Compound 33]
2520 nM

Subsequent entry: Cc1cc(C(=O)N2CCN(c3cc(C(C)(C)C)cc(C(C)(C)C)c3)CC2)n(C(C)(C)C)n1 [Compound 10]
1310 nM

---

# targetDesc: Human Cav2.2 channels (Homo sapiens, UniProt Q00975)
# Construct: expressed in transfected cells
# methodNotes: Block of Cav2.2 (N-type) channels expressed in HEK293 cells
# Format: cell-based
# conditions: HEK293; read-out: Cav 2.2 % Inh @ 30 μM
reportedProperty: inhibition at 30 µM (%)
Answer in %, number only, no unit symbol.

These recorded examples may help you get a feel for the data.
{"inputSmiles": "Cc1nc(C(=O)N2CCN(c3cc(C(C)(C)C)cc(C(C)(C)C)c3)CC2)c(C(F)(F)F)o1", "inhibition at 30 µM, %": 101}
{"inputSmiles": "Cc1cc(C(=O)N2CCN(c3cc(C(C)(C)C)cc(C(C)(C)C)c3)CC2)n(C(C)(C)C)n1", "inhibition at 30 µM, %": 104}
{"inputSmiles": "Cc1nc(C(F)(F)F)c(C(=O)N2CCN(c3cc(C(C)(C)C)cc(C(C)(C)C)c3)CC2)s1", "inhibition at 30 µM, %": 107}

As a next step, examine the compound that follows.
Which inhibition at 30 µM value is on record for CC(C)(C)c1cc(N2CCN(C(=O)c3ccc(S(C)(=O)=O)cc3Cl)CC2)cc(C(C)(C)C)c1 ?
96

---

# targetDesc: Human Cav2.2 channels (Homo sapiens)
# Construct: expressed in transfected cells
# methodNotes: Block of Cav2.2 (N-type) channels expressed in HEK293 cells
# Type: cell-based
# conditions: HEK293; read-out: Cav 2.2 % Inh @ 30 μM
# Description: Human Cav2.2 channels were stably expressed in HEK293 cells along with alpha2-delta and beta subunits of voltage-gated calcium channels. […] Calcium influx through Cav2.2 channels is determined using a calcium sensitive fluorescent dye in combination with a fluorescent plate reader. Fluorescent changes were measured with either a VIPR (Aurora Instruments) or FLIPR (Molecular Devices) plate reader. Protocol • 1. […] Read cell plate on VIPR instrument, Excitation=480 nm, Emission=535 nm • 9. […]
inhibition at 30 µM: recorded values
Answer in %, number only, no unit symbol.

These recorded examples may help you get a feel for the data.
{"compound": "CC(C)(C)c1cc(N2CCN(C(=O)c3cc(-c4ccccc4)nc(-c4ccccc4)c3)CC2)cc(C(C)(C)C)c1 [Compound 50]", "reportedProperty": "inhibition at 30 µM", "reportedMeasurement": 26}
{"compound": "CCn1nc(C)cc1C(=O)N1CCN(c2cc(C(C)(C)C)cc(C(C)(C)C)c2)CC1 [Compound 33]", "reportedProperty": "inhibition at 30 µM", "reportedMeasurement": 95}
{"compound": "Cc1ccc(S(C)(=O)=O)cc1C(=O)N1CCN(c2cc(C(C)(C)C)cc(C(C)(C)C)c2)CC1 [Compound 26]", "reportedProperty": "inhibition at 30 µM", "reportedMeasurement": 98}
{"compound": "CC1CCc2sc(C(=O)N3CCN(c4cc(C(C)(C)C)cc(C(C)(C)C)c4)CC3)cc2C1 (centres unmarked) [Compound 43]", "reportedProperty": "inhibition at 30 µM", "reportedMeasurement": 57}
{"compound": "Cc1ccsc1C(=O)N1CCN(c2cc(C(C)(C)C)cc(C(C)(C)C)c2)CC1 [Compound 29]", "reportedProperty": "inhibition at 30 µM", "reportedMeasurement": 101}

Form field: inhibition at 30 µM recorded for Cc1nc(C)c(C(=O)N2CCN(c3cc(C(C)(C)C)cc(C(C)(C)C)c3)CC2)s1 [Compound 32] with Human Cav2.2 channels (Homo sapiens) (enter value)
98

Subsequent entry: CC(C)(C)c1cc(N2CCN(C(=O)c3ccc(F)c(C(F)(F)F)c3)CC2)cc(C(C)(C)C)c1 [Compound 16]
90

Subsequent entry: CCCc1cc(C(=O)N2CCN(c3cc(C(C)(C)C)cc(C(C)(C)C)c3)CC2)sc1C [Compound 44]
81
